# target-system: recombinant rat PAI-1 (Rattus norvegicus, UniProt P20961)
# Sequence (P20961 24-402): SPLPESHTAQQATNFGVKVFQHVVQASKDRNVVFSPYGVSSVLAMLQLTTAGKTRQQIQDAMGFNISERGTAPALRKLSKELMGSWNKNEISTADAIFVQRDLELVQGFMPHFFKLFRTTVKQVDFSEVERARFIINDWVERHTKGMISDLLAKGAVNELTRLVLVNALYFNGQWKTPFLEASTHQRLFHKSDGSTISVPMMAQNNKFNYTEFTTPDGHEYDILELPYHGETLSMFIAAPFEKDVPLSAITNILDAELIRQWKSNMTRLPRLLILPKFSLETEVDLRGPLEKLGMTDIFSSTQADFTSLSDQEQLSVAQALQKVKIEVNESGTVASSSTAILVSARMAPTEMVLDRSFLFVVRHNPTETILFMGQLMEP
# experiment: biochemical
# experimental-setup: read-out: Inhibition Rate of PAI-1 Activity (%)
attribute-measured: inhibition at 3 µM
Field note: include the unit after the figure.

CC(C)c1ccc(Oc2ccc(CCC(=O)O)c(Oc3ccc(C(C)C)cc3)c2)cc1 [Compound 73]; 75%
CCN(CC)c1ccc(N(Cc2ccc(C(C)(C)C)cc2)C(=O)C(=O)O)cc1-c1ccc(OC(F)(F)F)cc1 [Compound 213]; 90%
CC(C)(C)c1ccc(CN(C(=O)C(=O)O)c2cc(C(F)(F)F)ccc2-c2ccc(OC(F)(F)F)cc2)cc1 [Compound 168]; 81%

Inquiry: Value lookup for inhibition at 3 µM; key = CC(C)(C)c1ccc(Oc2ccc(-c3ccc(OC(F)(F)F)cc3)cc2CCC(=O)O)cc1 [Compound 13]
Reply text: 69%

Inquiry: Another: CCCOc1ccc(-c2ccc(OC(F)(F)F)cc2)cc1N(Cc1ccc(C(C)(C)C)cc1)C(=O)C(=O)O [Compound 188]
Reply text: 84%

Inquiry: Another: CC(C)(C)c1ccc(COc2ccc(-c3ccc(OC(F)(F)F)cc3)cc2CCC(=O)O)cc1 [Compound 5]
Reply text: 52%

Inquiry: Another: CCCCCOc1ccc(-c2ccc(OC(F)(F)F)cc2)cc1N(Cc1ccc(C(C)(C)C)cc1)C(=O)C(=O)O [Compound 194]
Reply text: 98%

Inquiry: Another: CC(C)(C)c1ccc(CN(C(=O)C(=O)O)c2cccc(-c3ccc(OC(F)(F)F)cc3)c2)cc1 [Compound 130]
Reply text: 50%

###

# target-system: recombinant human PAI-1 (Homo sapiens, UniProt P05121)
# Sequence (P05121 24-402): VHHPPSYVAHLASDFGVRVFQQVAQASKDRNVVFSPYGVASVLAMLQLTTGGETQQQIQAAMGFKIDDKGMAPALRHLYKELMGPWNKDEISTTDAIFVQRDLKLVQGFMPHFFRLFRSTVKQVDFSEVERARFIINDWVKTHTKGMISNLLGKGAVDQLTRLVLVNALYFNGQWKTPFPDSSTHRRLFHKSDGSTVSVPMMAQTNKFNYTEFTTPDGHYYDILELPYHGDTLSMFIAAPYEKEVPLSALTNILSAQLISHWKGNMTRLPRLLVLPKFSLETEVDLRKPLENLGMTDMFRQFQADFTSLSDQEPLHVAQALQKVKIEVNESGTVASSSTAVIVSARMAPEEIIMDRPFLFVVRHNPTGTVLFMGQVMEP
# experiment: biochemical
# experimental-setup: read-out: Inhibition Rate of PAI-1 Activity (%)
Label Condition not met if inhibition at 5 µM falls below 60%; label Condition met in every other case.

Would you please look over these solved cases?
Cc1cc(N(C)C)c(-c2ccc(OC(F)(F)F)cc2)cc1N(CCCCc1ccccc1)C(=O)C(=O)O; Condition met
CC(C)(C)c1ccc(CN(C(=O)C(=O)O)c2ccc(-c3cccc(OC(F)(F)F)c3)cc2)cc1; Condition met
Cc1ccc(-c2ccc(OC(F)(F)F)cc2)cc1N(Cc1ccc(C(C)(C)C)cc1)C(=O)C(=O)O; Condition not met
CC(C)(C)c1ccc(Oc2ccc(Oc3ccc(OC(F)(F)F)cc3)cc2CCC(=O)O)cc1; Condition met
CCCOc1ccc(N(CCCc2ccccc2)C(=O)C(=O)O)cc1-c1ccc(OC(F)(F)F)cc1; Condition not met

Next item in the queue.
Inquiry: Check if inhibition at 5 µM >= 60% (inclusive). Item: CCCCOc1ccc(N(CCCCc2ccccc2)C(=O)C(=O)O)cc1-c1ccc(OC(F)(F)F)cc1
Reply text: Condition met

###

# target-system: recombinant human PAI-1 (Homo sapiens, UniProt P05121)
# experiment: Test Example 2: Human PAI-1 Inhibitory Activity (pH 7.4 HEPES buffer, 10 minutes incubation with two-chain tPA)
# Assay type: biochemical
# Parameters: purchased Molecular Innovations, Inc
# experimental-setup: read-out: Inhibition Rate of PAI-1 Activity (%)
# Procedure: 0.1 M HEPES, 0.1 M NaCl. 1 mM EDTA. 0.1 % Polyethylene glycol 8,000 (Hampton Research Corporation), 2 mM Dimethyldecylphoshine oxide [Apo-10] (Fluka Corporation)
Listing of recorded inhibition at 3 µM by entry.
Quick note: give the figure in %, leave out the unit.

Inquiry: Value lookup for inhibition at 3 µM; key = O=C(O)C(=O)N(CCCCc1ccccc1)c1cc(-c2ccc(OC(F)(F)F)cc2)ccc1OCCC(F)(F)F
Reply text: 98

Inquiry: Another: CC(C)(C)c1ccc(Oc2ccc(Nc3ccc(OC(F)(F)F)cc3)cc2CCC(=O)O)cc1
Reply text: 97

Inquiry: Another: CC(C)(C)c1ccc(Oc2cc(-c3cccc(OC(F)(F)F)c3)ccc2/C=C/C(=O)O)cc1
Reply text: 93

Inquiry: Another: CCCCCOc1ccc(-c2ccc(OC(F)(F)F)cc2)cc1N(CCCCc1ccccc1)C(=O)C(=O)O
Reply text: 99

Inquiry: Another: CCCCC(Oc1cc(Oc2ccc(OC(F)(F)F)cc2)ccc1Oc1ccc(C(C)(C)C)cc1)C(=O)O (centres unmarked)
Reply text: 94

Inquiry: Another: Cc1cc(C)cc(Oc2cc(-c3ccc(C(C)(C)C)cc3)ccc2CCC(=O)O)c1
Reply text: 98

###

# target-system: recombinant human PAI-1 (Homo sapiens)
# experiment: Test Example 2: Human PAI-1 Inhibitory Activity (pH 7.4 HEPES buffer, 10 minutes incubation with two-chain tPA)
# Format: biochemical
# Set-up: purchased Molecular Innovations, Inc
# experimental-setup: read-out: Inhibition Rate of PAI-1 Activity (%)
attribute-measured: inhibition at 1 µM (%)
Quick note: give the figure in %, leave out the unit.

Reference set (3 entries):
CC(C)(C)c1ccc(CN(C(=O)C(=O)O)c2cc(-c3ccc(OC(F)(F)F)cc3)cc(C(F)(F)F)c2)cc1 [Compound 139]; 30
CC(C)(C)c1ccc(COc2ccc(Oc3ccc(OC(F)(F)F)cc3)cc2CCC(=O)O)cc1 [Compound 96]; 26
CCCCN(CC(=O)O)c1cc(-c2ccc(OC(F)(F)F)cc2)ccc1Oc1ccc(C(C)(C)C)cc1 [Compound 428]; 92

Inquiry: Lab request: please report inhibition at 1 µM under test system recombinant human PAI-1 (Homo sapiens) for CCCCCOc1cc(-c2cccc(C(F)(F)F)c2)ccc1N(CCCCc1ccccc1)C(=O)C(=O)O [Compound 377]
Reply text: 83

Inquiry: Another: CCCCOc1ccc(-c2ccc(OC(F)(F)F)cc2)cc1C=CC(=O)O [Compound 405]
Reply text: 14

###

# target-system: recombinant human PAI-1 (Homo sapiens)
# experiment: Test Example 2: Human PAI-1 Inhibitory Activity (pH 7.4 HEPES buffer, 10 minutes incubation with two-chain tPA)
# Format: biochemical
# Design: purchased Molecular Innovations, Inc
# experimental-setup: read-out: Inhibition Rate of PAI-1 Activity (%)
# Experimental: 0.1 M HEPES, 0.1 M NaCl. 1 mM EDTA. 0.1 % Polyethylene glycol 8,000 (Hampton Research Corporation), 2 mM Dimethyldecylphoshine oxide [Apo-10] (Fluka Corporation)
attribute-measured: inhibition at 0.1 µM (%)
Quick note: give the figure in %, leave out the unit.

Inquiry: Value lookup for inhibition at 0.1 µM; key = O=C(O)/C=C/c1cc(-c2ccc(OC(F)(F)F)cc2)ccc1OCCCCCOc1ccc(-c2ccc(OC(F)(F)F)cc2)cc1/C=C/C(=O)O [Compound 543]
Reply text: 0

Inquiry: Another: CCCCC(Oc1cc(-c2cccc(C)c2)ccc1Oc1ccc(C(C)(C)C)cc1)C(=O)O (stereo not drawn) [Compound 317]
Reply text: 14

Inquiry: Another: COc1ccc(-c2ccc(OCC(=O)O)c(Oc3ccc(C(C)(C)C)cc3)c2)cc1 [Compound 445]
Reply text: 0

Inquiry: Another: CC(C)(C)c1ccc(Oc2cc(-c3cccc(C(F)(F)F)c3)ccc2OCC(=O)O)cc1 [Compound 315]
Reply text: 13

Inquiry: Another: CCCCCOc1ccc(-c2ccc(OC(F)(F)F)cc2)cc1N(CCCCOc1ccccc1)C(=O)C(=O)O [Compound 374]
Reply text: 5

###

# target-system: recombinant rat PAI-1 (Rattus norvegicus)
# experiment: biochemical
# experimental-setup: read-out: Inhibition Rate of PAI-1 Activity (%)
attribute-measured: inhibition at 10 µM

CC(C)(C)c1ccc(CN(C(=O)C(=O)O)c2ccc(OCc3ccccc3)c(-c3ccc(OC(F)(F)F)cc3)c2)cc1; 67%
CCCOc1ccc(-c2ccc(OC(F)(F)F)cc2)cc1N(Cc1ccc(C(C)(C)C)cc1)C(=O)C(=O)O; > 99%
CCCCCOc1ccc(-c2ccc(OC(F)(F)F)cc2)cc1N(CCCCc1ccccc1)C(=O)C(=O)O; > 99%
CN(C)c1ccc(N(Cc2ccc(C(C)(C)C)cc2)C(=O)C(=O)O)cc1-c1ccc(OC(F)(F)F)cc1; 97%
CC(C)(C)c1ccc(Oc2ccc(-c3ccc(OC(F)(F)F)cc3)cc2CCC(=O)O)cc1; > 99%
CC(C)(Oc1cc(-c2ccc(OC(F)(F)F)cc2)ccc1OCCCCc1ccccc1)C(=O)O; 98%
CC(C)(C)c1ccc(CN(C(=O)C(=O)O)c2cc(C(F)(F)F)ccc2-c2ccc(OC(F)(F)F)cc2)cc1; 97%
CC(C)(C)c1ccc(Oc2cc(-c3ccc(OC(F)(F)F)cc3)ccc2OCC(=O)O)cc1; 96%

Inquiry: Value lookup for inhibition at 10 µM; key = CC(C)(C)c1ccc(Oc2cccc(-c3ccc(OC(F)(F)F)cc3)c2OCC(=O)O)cc1
Reply text: 99%

Inquiry: Another: CC(C)(C)c1ccc(COc2ccc(-c3ccc(OC(F)(F)F)cc3)cc2N(Cc2ccccc2)C(=O)C(=O)O)cc1
Reply text: > 99%

Inquiry: Another: CCCOc1ccc(N(Cc2ccc(C(C)(C)C)cc2)C(=O)C(=O)O)cc1-c1ccc(OC(F)(F)F)cc1
Reply text: 76%

Inquiry: Another: CCC(CC)Oc1ccc(-c2ccc(OC(F)(F)F)cc2)cc1N(Cc1ccc(C(C)(C)C)cc1)C(=O)C(=O)O
Reply text: > 99%

Inquiry: Another: CC(C)(C)c1ccc(CN(C(=O)C(=O)O)c2cc(-c3ccc(OC(F)(F)F)cc3)cc(C(F)(F)F)c2)cc1
Reply text: 88%

Inquiry: Another: CC(C)(C)c1ccc(COc2cc(-c3ccc(OC(F)(F)F)cc3)ccc2CCC(=O)O)cc1
Reply text: 86%

Inquiry: Another: CC(C)(C)c1ccc(CN(C(=O)C(=O)O)c2ccc(Cl)c(-c3ccc(OC(F)(F)F)cc3)c2)cc1
Reply text: 89%
